Would you mind telling me the reported AC50 of each entry?
# assayed.system: Mu-type opioid receptor (Homo sapiens, UniProt P35372)
# Sequence (P35372 whole entry): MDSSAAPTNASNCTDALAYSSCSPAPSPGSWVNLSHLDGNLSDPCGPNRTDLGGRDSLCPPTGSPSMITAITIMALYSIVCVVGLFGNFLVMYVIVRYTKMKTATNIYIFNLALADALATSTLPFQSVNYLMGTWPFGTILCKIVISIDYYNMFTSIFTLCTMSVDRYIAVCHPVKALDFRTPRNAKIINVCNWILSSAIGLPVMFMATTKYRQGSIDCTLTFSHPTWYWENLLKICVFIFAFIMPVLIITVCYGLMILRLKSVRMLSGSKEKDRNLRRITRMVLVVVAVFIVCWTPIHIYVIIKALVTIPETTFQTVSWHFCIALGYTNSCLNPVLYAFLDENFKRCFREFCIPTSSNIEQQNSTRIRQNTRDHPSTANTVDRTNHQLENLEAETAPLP
# experimental.protocol: biochemical
# Type: functional

Below, each entry is followed by its recorded AC50 result.
compound | AC50
C=CC[C@@H]1/C=C(\C)C[C@H](C)C[C@H](OC)[C@H]2O[C@@](O)(C(=O)C(=O)N3CCCC[C@H]3C(=O)O[C@H](/C(C)=C/[C@@H]3CC[C@@H](O)[C@H](OC)C3)[C@H](C)[C@@H](O)CC1=O)[C@H](C)C[C@@H]2OC [TACROLIMUS ANHYDROUS] | > 30 µM
CN(CC1(C)CCCO1)S(=O)(=O)c1ccc(Cl)c(S(N)(=O)=O)c1 (centres undefined) [MEFRUSIDE] | > 30 µM
CC(=O)[C@@]1(O)CC[C@H]2[C@@H]3C=C(Cl)C4=CC(=O)[C@@H]5C[C@@H]5[C@]4(C)[C@H]3CC[C@@]21C | > 30 µM
CCN(CC)C(=O)Nc1ccc(OCC(O)CNC(C)(C)C)c(C(C)=O)c1 (centres undefined) | > 30 µM
CC(=O)O[C@H](CC(=O)[O-])C[N+](C)(C)C | > 30 µM
C=CCNc1nc(NCC=C)nc(N2CCN(C(c3ccc(F)cc3)c3ccc(F)cc3)CC2)n1 | > 30 µM

Required: AC50, one value per compound below.
1. C/N=C(\NC)NCc1ccccc1
2. CO[C@H]1/C=C/O[C@@]2(C)Oc3c(C)c(O)c4c(O)c(c(/C=N/N5CCN(C)CC5)c(O)c4c3C2=O)NC(=O)/C(C)=C\C=C\[C@H](C)[C@H](O)[C@@H](C)[C@@H](O)[C@@H](C)[C@H](OC(C)=O)[C@@H]1C
3. O=C1CN=C(c2ccccc2)c2cc([N+](=O)[O-])ccc2N1
4. CCCN(CCC)C(=O)Cc1c(-c2ccc(Cl)cc2)nc2ccc(Cl)cn12
5. COc1ccc(-c2noc(CC(=O)O)c2-c2ccc(OC)cc2)cc1
6. CCCCCC(=O)O[C@]1(C(C)=O)CC[C@H]2[C@@H]3CCC4=CC(=O)CC[C@]4(C)[C@H]3CC[C@@]21C [HYDROXYPROGESTERONE CAPROATE]

Reply |
["> 30 µM", "> 30 µM", "> 30 µM", "> 30 µM", "> 30 µM", "> 30 µM"]

Please report AC50 for every entry that follows.
1. C=C1/C(=C\C=C2/CCC[C@]3(C)[C@@H]([C@H](C)/C=C/[C@@H](O)C4CC4)CC[C@@H]23)C[C@@H](O)C[C@@H]1O
2. O=C1CCc2cc(OCCCCc3nnnn3C3CCCCC3)ccc2N1

Reply |
["> 30 µM", "> 30 µM"]

* * *

Listed here: compounds with reported AC50 for D(3) dopamine receptor (Homo sapiens, UniProt P35462).

Examples with answers:
compound | AC50
CC(S)C(=O)NCC(=O)O (stereo unspecified) | > 30 µM
CC(=O)O[C@]1(C(C)=O)CC[C@H]2[C@@H]3C=C(C)C4=CC(=O)CC[C@@H]4[C@H]3CC[C@@]21C [NOMEGESTROL ACETATE] | > 30 µM
Nc1ccc(S(=O)(=O)Nc2nccs2)cc1 | > 10 µM

Kindly give each listed record's AC50.
1. OCc1cc(C(O)CNCCCCCCOCCCCc2ccccc2)ccc1O (stereo unspecified)
2. C[C@]12CCC(=O)C(O)=C1CC[C@@H]1[C@@H]2CC[C@]2(C)C(=O)CC[C@@H]12
3. CC(N)C12CC3CC(CC(C3)C1)C2 (stereo unspecified)

Reply |
1. 8.9 µM
2. > 30 µM
3. > 30 µM

Provide reported AC50 for each item, in the same order as listed.
1. C#C[C@]1(OC(C)=O)CC[C@H]2[C@@H]3CCC4=C/C(=N/O)CC[C@@H]4[C@H]3CC[C@@]21CC [NORGESTIMATE]
2. CC(N)C(O)c1ccccc1 (stereo unspecified)
3. CCCCCCCCCCCCCCCCCCCCCC(=O)Nc1ccn([C@@H]2O[C@H](CO)[C@@H](O)[C@@H]2O)c(=O)n1
4. NC(=O)CN1CCCC1=O
5. C[N@+]1(CCF)[C@@H]2CC[C@H]1C[C@@H](OC(=O)C(O)(c1ccccc1)c1ccccc1)C2
6. C#C[C@]1(O)CC[C@H]2[C@@H]3CCC4=CC(=O)CC[C@@H]4[C@H]3C(=C)C[C@@]21CC

Reply |
1: 29 µM; 2: > 10 µM; 3: > 30 µM; 4: > 30 µM; 5: > 30 µM; 6: > 30 µM

For each of the compounds below, state AC50.
1. CC(=O)OCC(=O)[C@@]1(O)[C@H](C)C[C@H]2[C@@H]3CCC4=CC(=O)C=C[C@]4(C)[C@@]3(F)[C@@H](O)C[C@@]21C [DEXAMETHASONE ACETATE]
2. CCC(=O)O[C@H]1CC[C@H]2[C@@H]3CCC4=CC(=O)CC[C@]4(C)[C@H]3CC[C@]12C [TESTOSTERONE PROPIONATE]
3. CCOC(=O)C1=C(C)NC(C)=C(C(=O)OC)C1c1cccc([N+](=O)[O-])c1 (stereo unspecified)
4. CCCCC(=O)O[C@]1(C(=O)CO)[C@@H](C)C[C@H]2[C@@H]3CCC4=CC(=O)C=C[C@]4(C)[C@@]3(F)[C@@H](O)C[C@@]21C [BETAMETHASONE VALERATE]

Reply |
1. > 30 µM
2. > 30 µM
3. > 30 µM
4. > 30 µM
